- assay.info: Half life in human liver microsomes at 5 uM
- condition: liver microsomes
observable: half-life at 5 µM (min)

For orientation, consider the following solved cases.
C=CC(=O)NCc1coc(-c2c(N)ncnc2Nc2ccc(OCc3ccccn3)c(F)c2)n1 = 27
C=CC(=O)NCc1coc(-c2c(N)ncnc2Nc2ccc(OCc3ccccn3)c(Cl)c2)n1 = 25
C=CC(=O)NCc1coc(-c2c(N)ncnc2Nc2ccc(Oc3cccnc3)c(Cl)c2)n1 = 15
C=CC(=O)NCc1coc(-c2c(N)ncnc2Nc2ccc(F)c(Cl)c2)n1 = 16
C=CC(=O)NCc1coc(-c2c(N)ncnc2Nc2ccc(OCc3cccc(F)c3)c(Cl)c2)n1 = 45

1 = C=CC(=O)NCc1coc(-c2c(N)ncnc2Nc2ccc(Oc3cc(Cl)ccc3Cl)c(Cl)c2)n1
2 = C=CC(=O)NCc1coc(-c2c(N)ncnc2Nc2ccc(Oc3ccccn3)c(Cl)c2)n1
Query: Of 1 versus 2 , which is the one with smaller reported half-life at 5 µM? Could you answer with the label of the item you picked?
Result: 2
(2: 39 min, 1: 96 min)

###

- assay.info: Half life in rat liver microsomes at 5 uM
- condition: liver microsomes
observable: half-life at 5 µM (min)

For orientation, consider the following solved cases.
C=CC(=O)NCc1coc(-c2c(N)ncnc2Nc2ccc(OCc3ccccn3)c(Cl)c2)n1 = 23
C=CC(=O)NCc1coc(-c2c(N)ncnc2Nc2ccc(F)c(Cl)c2)n1 = 24
C=CC(=O)NCc1coc(-c2c(N)ncnc2Nc2ccc(OCc3cccc(F)c3)c(Cl)c2)n1 = 29
C=CC(=O)NCc1coc(-c2c(N)ncnc2Nc2ccc(Oc3cc(Cl)ccc3Cl)c(Cl)c2)n1 = 51
C=CC(=O)NCc1coc(-c2c(N)ncnc2Nc2ccc(Oc3ccc(F)cc3)c(Cl)c2)n1 = 66

I = C=CC(=O)NCc1coc(-c2c(N)ncnc2Nc2ccc(Oc3ccccc3)c(Cl)c2)n1
II = C=CC(=O)NCc1coc(-c2c(N)ncnc2Nc2ccc(Oc3cccnc3)c(Cl)c2)n1
Query: Compare I and II by numeric half-life at 5 µM and name the larger one. Could you answer with the label of the item you picked?
Result: I
(I: 59 min, II: 9 min)

I = C=CC(=O)NCc1coc(-c2c(N)ncnc2Nc2ccc(Oc3cccc(F)c3)c(Cl)c2)n1
II = C=CC(=O)NCc1coc(-c2c(N)ncnc2Nc2ccc(OCc3ccccn3)c(F)c2)n1
Query: Of I versus II , which is the one with smaller reported half-life at 5 µM? Could you answer with the label of the item you picked?
Result: II
(II: 16 min, I: 54 min)

###

- assay.info: Half life in human liver microsomes at 5 uM
- condition: microsomes
Known half-life at 5 µM of a selection of molecules

For orientation, consider the following solved cases.
C=CC(=O)NCc1coc(-c2c(N)ncnc2Nc2ccc(Oc3cc(C(F)(F)F)nn3C)c(Cl)c2)n1 = > 1.67 h
C=CC(=O)NCc1coc(-c2c(N)ncnc2Nc2ccc(Oc3ccnn3C)c(Cl)c2)n1 = > 1.67 h

Query: Fill in the blank: the reported half-life at 5 µM of "C=CC(=O)NCc1coc(-c2c(N)ncnc2Nc2ccc(Oc3ccc(C)nc3)c(C)c2)n1" is ____.
Result: 0.65 h

###

- assay.info: Cmax in ICR mouse at 10 mg/kg, po
- Type: ADME, organism-based
- Set-up: dose 10 mg/kg, route oral
- condition: in vivo
observable: Cmax (ng/mL)
The figure you give is taken to be in ng/mL; do not add the unit.

Query: Fill in the blank: the reported Cmax of "C=CC(=O)NCc1coc(-c2c(N)ncnc2Nc2ccc(OCc3ccccn3)c(Cl)c2)n1.Cl" is ____.
Result: 282
